Property: pKi; scope: individual molecules
molecular target: human FXa (Homo sapiens, UniProt P00742); construct: 6 nM of human FXa; USA; assay: In vitro plasma matrix effect on anti-FX activity (compounds diluted in 100% rat plasma); details: compound in 100% rat plasma, 30 min incubation, S2222, pH 7.5, room temperature, read-out: Ki (Xa)
pKi: −log10 of the molar value. Counter-ions that a name gives are not always drawn.
reported endpoint: pKi

N=C(N)c1ccc(/C=C2/CCCC/C(=C\c3ccc(C(=N)N)cc3)C2=O)cc1 [EX. 2 Z,E] = 6.68
N=C(N)c1ccc(/C=C2/CCCC/C(=C/c3ccc(C(=N)N)cc3)C2=O)cc1 [EX. 2 Z,Z] = 8.46
N=C(N)c1ccc(/C=C2\CCCC/C(=C\c3ccc(C(=N)N)cc3)C2=O)cc1 [EX. 1 E,E, hydrochloride] = 4.57

---

pKi: −log10 of the molar value. Counter-ions that a name gives are not always drawn.
In what follows, each item is paired with its pKi for Factor Xa (HFXa) (Homo sapiens).
reported endpoint: pKi

CNC(=N)c1ccc(/C=C2\CCCC/C(=C\c3ccc(C(=N)N)cc3)C2=O)cc1 [EX. 7 E,E, hydrochloride] = 4.54
N=C(N)c1cccc(/C=C2\CCCC/C(=C\c3cccc(C(=N)N)c3)C2=O)c1 [EX. 12 E,E, dihydrochloride] = 5.86
N=C(N)c1ccc(/C=C2/CCCCC/C(=C/c3ccc(C(=N)N)cc3)C2=O)cc1 = 7.86
N=C(N)c1ccc(/C=C2\CCC/C(=C\c3ccc(C(=N)N)cc3)C2=O)cc1 = 5.25
N=C(N)c1ccc(/C=C2/CCCC/C(=C/c3ccc(C(N)=O)cc3)C2=O)cc1 [EX. 6 Z,Z, trifluoroacetate] = 7.28
N=C(N)c1ccc(/C=C2/CCCCCC/C(=C/c3ccc(C(=N)N)cc3)C2=O)cc1 = 8.22

---

As an illustration, consider measured Ki for compounds on Factor Xa (HFXa) (Homo sapiens).
Sequence (P00742 235-488 limits assumed): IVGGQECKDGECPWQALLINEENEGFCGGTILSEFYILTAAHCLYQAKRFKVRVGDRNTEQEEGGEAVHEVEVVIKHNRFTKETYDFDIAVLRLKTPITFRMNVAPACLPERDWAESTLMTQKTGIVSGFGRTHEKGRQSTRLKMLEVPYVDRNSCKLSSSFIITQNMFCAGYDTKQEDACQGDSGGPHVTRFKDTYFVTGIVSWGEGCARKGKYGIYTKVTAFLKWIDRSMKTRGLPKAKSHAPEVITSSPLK
Sequence (P00742 41-179 limits assumed): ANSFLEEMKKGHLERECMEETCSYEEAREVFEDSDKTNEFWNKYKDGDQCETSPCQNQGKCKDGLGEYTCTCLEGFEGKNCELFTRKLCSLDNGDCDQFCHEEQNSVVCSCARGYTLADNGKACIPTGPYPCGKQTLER
Structures can show the parent of a compound that is named as a salt.
reported endpoint: Ki (µM)

N=C(N)c1ccc(/C=C2\CCCC/C(=C\c3ccc(C(=N)N)cc3)C2=O)cc1 [EX. 1 E,E, hydrochloride] = 16.5
N=C(N)c1ccc(C=C2CCCCC(=Cc3ccc(C(N)=O)cc3)C2=O)cc1 = 1.85
C/N=C(\N)c1ccc(/C=C2/CCCC/C(=C/c3ccc(C(=N)N)cc3)C2=O)cc1 = 0.0123
N=C(N)c1ccc(/C=C2/CCCC/C(=C/c3ccc(C(=N)N)cc3)C2=O)cc1 = 0.00112
N=C(N)c1ccc(/C=C2/CCCC/C(=C\c3ccc(C(=N)N)cc3)C2=O)cc1 = 0.201
N=C(N)c1ccc(/C=C2/CCCCCC/C(=C\c3ccc(C(=N)N)cc3)C2=O)cc1 = 0.324
N=C(N)c1ccc(/C=C2/CCCCCCC/C(=C/c3ccc(C(=N)N)cc3)C2=O)cc1 = 0.111
CNC(=N)c1ccc(C=C2CCCCC(=Cc3ccc(C(=N)N)cc3)C2=O)cc1 = 0.504
N=C(N)c1ccc(/C=C2/CCC/C(=C/c3ccc(C(=N)N)cc3)C2=O)cc1 = 0.0289
N=C(N)c1cccc(/C=C2/CCCC/C(=C\c3cccc(C(=N)N)c3)C2=O)c1 = 0.143

---

biological target: thrombin (IIa) (Homo sapiens, UniProt P00734)
pKi: −log10 of the molar value. Structures can show the parent of a compound that is named as a salt.
Please use YES whenever pKi is not below 6, and NO whenever it is.

N=C(N)c1ccc(/C=C2\CCCC/C(=C\c3ccc(C(N)=O)cc3)C2=O)cc1 [EX. 5 E,E, hydrochloride] = NO
N=C(N)c1cccc(/C=C2\CCCC/C(=C\c3cccc(C(=N)N)c3)C2=O)c1 [EX. 12 E,E, dihydrochloride] = NO
C/N=C(\N)c1ccc(/C=C2/CCCC/C(=C/c3ccc(C(=N)N)cc3)C2=O)cc1 = NO
N=C(N)c1ccc(/C=C2/CCCC/C(=C\c3ccc(C(=N)N)cc3)C2=O)cc1 = YES
CNC(=N)c1ccc(/C=C2\CCCC/C(=C\c3ccc(C(=N)N)cc3)C2=O)cc1 [EX. 7 E,E, hydrochloride] = NO
N=C(N)c1ccc(/C=C2/CCCCC/C(=C\c3ccc(C(=N)N)cc3)C2=O)cc1 = YES
N=C(N)c1ccc(/C=C2/CCCC/C(=C/c3ccc(C(N)=O)cc3)C2=O)cc1 [EX. 6 Z,Z, trifluoroacetate] = YES
N=C(N)c1ccc(/C=C2/CCCCCC/C(=C/c3ccc(C(=N)N)cc3)C2=O)cc1 = YES
N=C(N)c1ccc(/C=C2/CCCCCC/C(=C\c3ccc(C(=N)N)cc3)C2=O)cc1 = YES
N=C(N)c1ccc(/C=C2/CCC/C(=C\c3ccc(C(=N)N)cc3)C2=O)cc1 = YES
N=C(N)c1ccc(/C=C2/CCCC/C(=C/c3ccc(C(=N)N)cc3)C2=O)cc1 = YES
N=C(N)c1ccc(/C=C2\CCCC/C(=C\c3ccc(C(=N)N)cc3)C2=O)cc1 [EX. 1 E,E, hydrochloride] = NO
N=C(N)c1ccc(C=C2CCCCC(=Cc3ccc(C(N)=O)cc3)C2=O)cc1 = YES
